# experimental system: Hepatocyte nuclear factor 6 (Homo sapiens)
# assay text: ATG_HNF6_CIS: Attagene CIS-FACTORIAL HepG2 Assay for human Hepatocyte Nuclear Factor 6 (HNF6) (AID 2282952)
# applied conditions: HepG2 Attagene cis-factorial HNF6 reporter transcription; actives raise or lower the signal
# Experimental: ATG_CIS is a cell-based, multiplexed-readout assay that uses HepG2, a human liver cell line, with measurements taken at 24 hours after chemical dosing in a 24-well plate.ATG_HNF6_CIS is one of 52 assay component(s) measured or calculated from the ATG_CIS assay. […] This assay endpoint, ATG_HNF6_CIS, was analyzed with bidirectional fitting relative to DMSO as the negative control and baseline of activity. […]
Activity calls are given as the source filed them. How the source made its calls: active means hit-call score of the fitted dose curve at least 0.9, where 1 is the maximum; inactive means score below 0.9.
Answer with one of the outcomes given here: active, inactive

compound: Cc1cccc(Nc2ccccc2)c1
label: inactive

Here's the next entry for you.
Lookup: Per the records of this test, what outcome belongs to "CCCCC1(COC(=O)CCC(=O)O)C(=O)N(c2ccccc2)N(c2ccccc2)C1=O" ?
Found: inactive
